# assay.protocol: Compound was tested for anti HIV activity by measuring therapeutic index in H9 lymphocytes; IC50/EC50
# Assay type: organism-based
# conditions.used: human immunodeficiency virus, H9 lymphocytes infected with HIV; read-out: TI

[
  {
    "compound": "CC1(C)Oc2ccc3ccc(=O)oc3c2[C@@H](OC(=O)C23CCC(C)(C(=O)O2)C3(C)C)[C@H]1OC(=O)C12CCC(C)(C(=O)O1)C2(C)C (some centres not stated)",
    "selectivity ratio": 137000
  },
  {
    "compound": "Cc1cc2ccc(=O)oc2c2c1OC(C)(C)[C@H](OC(=O)C13CCC(C)(C(=O)O1)C3(C)C)[C@@H]2OC(=O)C12CCC(C)(C(=O)O1)C2(C)C (some centres not stated)",
    "selectivity ratio": 220
  }
]
